Target: human GLP-1 receptor (human, UniProt P43220 24-463)
Test: cell-based or functional assay
Starred links: 1 amine or outer side, 2 acyl side, 3 side chain; linkers in the order of their positions; H or OH if unused. Non-standard residues stand in square brackets, D forms with d. Groups on a side chain read outwards from the residue. *: point of attachment. C20 diacid = O=C(O)CCCCCCCCCCCCCCCCCCC(=O)*; γGlu = O=C(O)[C@H](CCC(=O)[*:2])N[*:1]; Aib = CC(C)(N)C(=O)O
Listed binders paired with reported EC50 hGLP1 R (cAMP, HEK293 cells expressing the GLP-1R)
QUANTITY_MEASURED: EC50 hGLP1 R (cAMP, HEK293 cells expressing the GLP-1R)

[[record]]
binder = "H-Y[Aib]EGTFISDYSIELDKK([Peg3-Peg3-γGlu-C20 diacid])HQQDFVNWLLAQGPSSGAPPPS-NH2 [Compound 9]"
observed_result = "> 3 nM"

[[record]]
binder = "H-Y[Aib]EGTFISDYSIELDKIAQKEFIEWLLAGPSSGAPPPSK([Peg3-Peg3-γGlu-C20 diacid])-NH2 [Compound 24]"
observed_result = "> 10 nM"

[[record]]
binder = "H-Y[Aib]EGTFISDYSIELEKK([Peg3-Peg3-γGlu-C20 diacid])AAKEFVNWLLAQGPSSGAPPPS-NH2 [Compound 11]"
observed_result = "> 3 nM"

